Just for reference, patent US7214792B2 is where these values come from.

Test system: LAB-1
methodNotes: Antibiotic sensitivity testing of LAB-1
Assay type: cell-based
conditionDescription: LAB-1 organism
Experimental: A variety of biochemical tests were performed in order to identify the species and the genus of organism. […]
measurementName: Antibiotic Susceptibility Results

Worked examples, 4 compounds total:
{"columns": ["compound", "Antibiotic Susceptibility Results"],
 "data": [
  ["CO[C@@H]1[C@@H](OC(N)=O)[C@@H](O)[C@H](Oc2ccc3c(O)c(NC(=O)c4ccc(O)c(CC=C(C)C)c4)c(=O)oc3c2C)OC1(C)C [Novobiocin]", "sensitive"],
  ["NCC[C@H](O)C(=O)N[C@@H]1C[C@H](N)[C@@H](O[C@H]2O[C@H](CN)[C@@H](O)[C@H](O)[C@H]2O)[C@H](O)[C@H]1O[C@H]1O[C@H](CO)[C@@H](O)[C@H](N)[C@H]1O [Amikacin]", "sensitive"],
  ["[H]/N=C(/N)N[C@H]1[C@H](O)[C@@H](O)[C@H](O[C@@H]2O[C@@H](C)[C@](O)(C=O)[C@H]2O[C@@H]2O[C@@H](CO)[C@H](O)[C@@H](O)[C@@H]2NC)[C@@H](N/C(N)=N\\[H])[C@@H]1O [Streptomycin]", "resistant"],
  ["CC[C@H]1OC(=O)[C@H](C)[C@@H](O[C@H]2C[C@@](C)(OC)[C@@H](O)[C@H](C)O2)[C@H](C)[C@@H](O[C@@H]2O[C@H](C)C[C@H](N(C)C)[C@H]2O)[C@](C)(O)C[C@@H](C)C(=O)[C@H](C)[C@@H](O)[C@]1(C)O [Erythromycin]", "resistant"]
]}

Okay, now this compound:
Report Antibiotic Susceptibility Results for CC1(C)S[C@@H]2[C@H](NC(=O)[C@H](N)c3ccccc3)C(=O)N2[C@H]1C(=O)O [Ampicillin] please.
resistant
